# target_or_test_system: EGFR L858R/T790M/C797S (Homo sapiens, UniProt P00533, C797S/L858R/T790M)
# Sequence (P00533 25-1210 T790M/C797S/L858R): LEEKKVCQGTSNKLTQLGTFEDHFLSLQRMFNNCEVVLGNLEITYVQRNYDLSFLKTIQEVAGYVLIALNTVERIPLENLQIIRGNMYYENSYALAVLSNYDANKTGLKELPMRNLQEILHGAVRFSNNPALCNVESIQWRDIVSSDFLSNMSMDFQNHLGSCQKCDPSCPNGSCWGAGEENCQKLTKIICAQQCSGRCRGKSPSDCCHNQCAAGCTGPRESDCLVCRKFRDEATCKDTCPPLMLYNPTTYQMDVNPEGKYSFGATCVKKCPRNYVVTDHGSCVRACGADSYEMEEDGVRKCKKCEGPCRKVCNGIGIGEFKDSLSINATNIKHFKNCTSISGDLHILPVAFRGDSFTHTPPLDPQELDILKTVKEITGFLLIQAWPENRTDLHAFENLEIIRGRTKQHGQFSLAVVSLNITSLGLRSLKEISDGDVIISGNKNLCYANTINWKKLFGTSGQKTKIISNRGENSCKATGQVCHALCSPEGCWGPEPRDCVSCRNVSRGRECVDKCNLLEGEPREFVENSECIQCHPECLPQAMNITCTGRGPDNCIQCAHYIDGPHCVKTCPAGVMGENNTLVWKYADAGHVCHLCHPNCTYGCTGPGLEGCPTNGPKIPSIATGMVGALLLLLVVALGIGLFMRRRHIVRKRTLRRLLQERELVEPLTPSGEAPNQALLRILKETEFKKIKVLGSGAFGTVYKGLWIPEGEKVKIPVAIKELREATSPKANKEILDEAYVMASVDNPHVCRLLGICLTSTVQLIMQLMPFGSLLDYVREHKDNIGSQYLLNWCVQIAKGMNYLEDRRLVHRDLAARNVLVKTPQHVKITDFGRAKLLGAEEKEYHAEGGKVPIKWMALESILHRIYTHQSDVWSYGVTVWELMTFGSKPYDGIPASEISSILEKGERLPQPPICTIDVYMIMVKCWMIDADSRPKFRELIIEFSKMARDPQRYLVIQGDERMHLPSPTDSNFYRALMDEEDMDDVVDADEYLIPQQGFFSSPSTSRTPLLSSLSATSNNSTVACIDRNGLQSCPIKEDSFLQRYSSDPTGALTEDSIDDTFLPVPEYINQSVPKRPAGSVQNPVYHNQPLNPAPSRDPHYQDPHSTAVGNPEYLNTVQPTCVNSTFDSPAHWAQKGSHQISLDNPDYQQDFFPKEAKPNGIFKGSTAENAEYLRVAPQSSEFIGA
# procedure_summary: Biochemical EGFR kinase inhibition assay (Lance Ultra TR-FRET), triple mutant L858R/T790M/C797S
# experimental_parameters: IC50 L858R/T790M/C797S (nM), 100 μM ATP
For each record, check the reported IC50: if it is below 1 nM write criterion met, else write criterion not met.

Examples from the recorded data:
O=S(=O)(C1CC1)n1cc(-c2nccc(Nc3cc(N4CCC(F)CC4)c(C#Cc4cnn(C5CCOCC5)c4)cn3)n2)cn1 ... criterion not met
C[C@]1(O)CC[C@@H](Nc2cc(Nc3ccnc(-c4cnn(S(=O)(=O)C5CC5)c4)n3)ncc2C#Cc2cnn(C(F)(F)F)c2)CC1 ... criterion not met
CC1(CO)CCN(c2cc(Nc3ccnc(-c4cnn(S(=O)(=O)C5CC5)c4)n3)ncc2C#CC2CCN(S(=O)(=O)C3CC3)C2)CC1 (stereo not drawn) ... criterion not met
CC(C)Nc1cc(Nc2ccnc(-c3cnn(S(=O)(=O)C4CC4)c3)n2)ncc1C#CCCCC(=O)N1CCOCC1 ... criterion not met

hey, is IC50 for `CC1(CO)CCN(c2cc(Nc3ccnc(-c4cnn(S(=O)(=O)C5CC5)c4)n3)ncc2C#CC2CCOCC2)CC1` lower than 1 nM or not? criterion met
